Test: In vivo pharmacokinetics, oral gavage
Conditions: CD, mouse, in vivo, po, 50 mg/kg
Each entry below carries its recorded Cmax.
Please respond with the number in ng/mL and leave the unit unwritten.

In the examples that follow, each entry is paired with its recorded Cmax.
molecularstring=CC[C@@]1(O)C(=O)OCc2c1c(N)c1n(c2=O)Cc2c-1nc1ccccc1c2C quantitativereadout=378
molecularstring=CCc1c2c(nc3ccccc13)-c1c(N)c3c(c(=O)n1C2)COC(=O)[C@]3(O)CC quantitativereadout=250
molecularstring=CCc1c2c(nc3ccccc13)-c1c(NC=O)c3c(c(=O)n1C2)COC(=O)[C@]3(O)CC quantitativereadout=6070

We next turn to a different compound, shown below.
## Task Give Cmax for the following compound: `CC[C@@]1(O)C(=O)OCc2c1c(N)c1n(c2=O)Cc2cc3c(N)cccc3nc2-1`
## Result 5860

====

Each entry below carries its recorded pIC50.
System: MRP1 over expressing H69AR line
Test: Efflux pump drug resistance, antiproliferation assay, MRP1 over expressing line
Assay type: cell-based
Settings: Homo sapiens, 120 h, air, 5 days, read-out: Air 5d H69ar (MRP1) prol. IC50
Scale note: pIC50 = -log10(concentration in M).

## Task Give pIC50 for the following compound: CCc1c2c(nc3ccccc13)-c1c([N+](=O)[O-])c3c(c(=O)n1C2)COC(=O)[C@]3(O)CC [TH1332]
## Result 5.06

## Task Give pIC50 for the following compound: CC[C@@]1(O)C(=O)OCc2c1c([N+](=O)[O-])c1n(c2=O)Cc2cc3ccccc3nc2-1 [TH1317]
## Result 5.88

## Task Give pIC50 for the following compound: CC[C@@]1(O)C(=O)OCc2c1c([N+](=O)[O-])c1n(c2=O)Cc2c-1nc1ccccc1c2C [TH1446]
## Result 5.07

## Task Give pIC50 for the following compound: CC[C@@]1(O)C(=O)OCc2c1c([N+](=O)[O-])c1n(c2=O)Cc2c-1nc1ccccc1c2/C=N/OC(C)(C)C [TH1431]
## Result 6.08

====

Assay: Bone marrow progenitor cell clonogenic assay (CFU-GM), mouse
Conditions: mouse
Each entry below carries its recorded IC90.
Please respond with the number in µM and leave the unit unwritten.

molecularstring=CC[C@@]1(O)C(=O)OCc2c1c(N)c1n(c2=O)Cc2cc3c(N)cccc3nc2-1 reportedendpoint=IC90 unitslabel=µM quantitativereadout=3.5
molecularstring=CCc1c2c(nc3ccccc13)-c1c(N)c3c(c(=O)n1C2)COC(=O)[C@]3(O)CC reportedendpoint=IC90 unitslabel=µM quantitativereadout=4.5

We next turn to a different compound, shown below.
## Task Give IC90 for the following compound: `CCc1c2c(nc3ccccc13)-c1c(NC=O)c3c(c(=O)n1C2)COC(=O)[C@]3(O)CC`
## Result 5

====

Tested on: human melanoma cell line SKMEL2
Assay: Antiproliferation assay, 72 hrs under air, Alamar Blue
Assay type: cell-based
Details: Homo sapiens, SK-MEL-2, read-out: SKMEL-2 IC50
Each entry below carries its recorded pIC50.
Scale note: pIC50 = -log10(concentration in M).

compound="CCc1c2c(nc3ccccc13)-c1c(N)c3c(c(=O)n1C2)COC(=O)[C@]3(O)CC [TH1338]" assayedtarget="human melanoma cell line SKMEL2" quantitativereadout=6.89
compound="CC[C@@]1(O)C(=O)OCc2c1c(N)c1n(c2=O)Cc2cc3ccccc3nc2-1 [TH1320]" assayedtarget="human melanoma cell line SKMEL2" quantitativereadout=6.77

We next turn to a different compound, shown below.
## Task Give pIC50 for the following compound: CC[C@@]1(O)C(=O)OCc2c1c(N)c1n(c2=O)Cc2c-1nc1ccccc1c2C [TH1339]
## Result 7.30

Where do the numbers come from? From patent US8575188B2.
